tested on: Caco-2 cell line; format: in vitro ADME, human
READOUT NAME: Permeability enhancement of hydrochlorothiazide

COMPOUND	OBS VALUE
CC1(C)[C@@H](O)CC[C@]2(C)[C@H]3C(=O)C=C4[C@@H]5C[C@@](C)(C(=O)O)CC[C@]5(C)CC[C@@]4(C)[C@]3(C)CC[C@@H]12 [Glycyrrehetinic acid, 18β-glycyrrhetinic acid, reference compound]	low or no potency
O=C(/C=C/C=C/c1ccc2c(c1)OCO2)N1CCCCC1 [Piperine, piperine]	low or no potency
O=C1CCCCCCCCCCCCCCO1 [Cyclopentadecanolide, cyclopentadecanolide]	low or no potency

====

experiment: in vitro; details: human, Caco-2
READOUT NAME: Papp at 6.8 uM

COMPOUND	OBS VALUE
OC[C@@H](O)[C@@H](O)[C@H](O)[C@H](O)CO [Mannitol, reference compound]	1.24 ×10⁻⁶ cm/s

====

test system: Caco-2 cell line; type: in vitro ADME, human
In this section we review reported Permeability coefficient (mannitol) values for a set of molecules.

MOLECULE	Permeability coefficient (mannitol)
NCCCCCC(=O)O [Amino caproic acid]	1.07 10E−6 cm/s
NC(=O)NCCC[C@H](N)C(=O)O [Citrulline]	0.22 10E−6 cm/s
O=c1cc(CO)occ1O [Kojic acid]	1.63 10E−6 cm/s
O=C(O)CCCCCCCCC(=O)O [Sebacic acid, sebacic acid]	7.50 10E−6 cm/s
CN(C)CC(=O)O [N,N-dimethylglycine]	12.30 10E−6 cm/s

====

test system: Caco-2 cells; assay: Lactate dehydrogenase (LDH) assay after the permeation studies; type: cell-based, human; conditions: sampatrilat study; excipient 1% w/v (none for drug alone)

SMILES STRING	Toxicity
CN(C)CC(=O)O	No
O=c1cc(CO)occ1O	Yes
NC(=O)NCCC[C@H](N)C(=O)O	Yes
NCCCCCC(=O)O	Yes
O=C(O)CCCCCCCCC(=O)O	No
O=C(O)C1=C[C@@H](O)[C@@H](O)[C@H](O)C1	No

====

tested on: Caco-2 cell line; type: in vitro ADME, human; conditions: Caco-2

COMPOUND	Permeability Coefficient, Sampatrilat
NCCCCCC(=O)O [Amino caproic acid]	0.48 10E−6 cm/s
O=C(O)CCCCCCCCC(=O)O [Sebacic acid, sebacic acid]	2.10 10E−6 cm/s
O=c1cc(CO)occ1O [Kojic acid]	0.49 10E−6 cm/s
CN(C)CC(=O)O [N,N-dimethylglycine]	19.90 10E−6 cm/s
NC(=O)NCCC[C@H](N)C(=O)O [Citrulline]	0.34 10E−6 cm/s

====

test system: Caco-2 cell line; conditions: human, Caco-2, 1 %

COMPOUND	Enhancement ratio
CN(C)CC(=O)O [N,N-dimethylglycine]	15.9
OC[C@@H](O)[C@@H](O)[C@H](O)[C@H](O)CO [Mannitol, reference compound]	1.0
NCC(=O)O [glycine]	1.0
CNCC(=O)O [sarcosine, methyl glycine]	1.0
